Documented IC50 across a set of molecules
# system.under.test: UniProtKB Q9GZR1
# Sequence (Q9GZR1 whole entry): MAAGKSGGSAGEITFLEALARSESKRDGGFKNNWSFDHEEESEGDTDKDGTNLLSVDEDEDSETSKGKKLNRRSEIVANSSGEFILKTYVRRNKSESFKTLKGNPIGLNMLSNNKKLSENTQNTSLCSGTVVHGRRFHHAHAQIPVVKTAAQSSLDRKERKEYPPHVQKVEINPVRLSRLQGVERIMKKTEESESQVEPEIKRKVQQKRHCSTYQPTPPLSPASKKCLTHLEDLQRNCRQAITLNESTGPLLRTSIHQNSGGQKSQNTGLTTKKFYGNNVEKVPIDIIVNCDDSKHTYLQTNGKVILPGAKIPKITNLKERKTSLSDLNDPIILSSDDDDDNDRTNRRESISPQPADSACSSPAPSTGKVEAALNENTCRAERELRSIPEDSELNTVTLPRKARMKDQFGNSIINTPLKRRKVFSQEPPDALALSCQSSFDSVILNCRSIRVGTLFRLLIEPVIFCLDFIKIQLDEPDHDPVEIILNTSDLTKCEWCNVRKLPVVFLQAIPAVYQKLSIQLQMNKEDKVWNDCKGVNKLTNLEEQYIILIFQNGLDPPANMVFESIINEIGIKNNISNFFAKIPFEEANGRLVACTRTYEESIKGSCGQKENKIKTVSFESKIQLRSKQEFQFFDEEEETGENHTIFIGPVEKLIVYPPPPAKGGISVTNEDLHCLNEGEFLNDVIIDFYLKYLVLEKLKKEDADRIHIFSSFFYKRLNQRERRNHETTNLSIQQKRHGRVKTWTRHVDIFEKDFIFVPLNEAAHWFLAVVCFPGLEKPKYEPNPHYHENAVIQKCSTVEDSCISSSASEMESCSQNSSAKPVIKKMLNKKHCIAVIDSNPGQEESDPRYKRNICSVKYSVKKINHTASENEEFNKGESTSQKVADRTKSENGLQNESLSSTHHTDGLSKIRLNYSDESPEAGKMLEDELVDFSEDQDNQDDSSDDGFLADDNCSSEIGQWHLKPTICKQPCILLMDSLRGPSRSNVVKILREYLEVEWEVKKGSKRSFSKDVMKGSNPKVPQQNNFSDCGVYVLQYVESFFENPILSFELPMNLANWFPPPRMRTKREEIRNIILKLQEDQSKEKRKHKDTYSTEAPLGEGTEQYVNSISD
# Type: functional
The source made the active and inactive calls.
property.measured: IC50

- molecule: "Brc1ccc(-c2cn3nc4c(nc3n2)CCCC4)cc1"
  system.under.test: "UniProtKB Q9GZR1"
  data.value: "12.3 µM (active)"
- molecule: "O=[N+]([O-])c1ccc(O)c(/C=N/NC(=S)Nc2ccc(Cl)cc2Cl)c1"
  system.under.test: "UniProtKB Q9GZR1"
  data.value: "3.15 µM (active)"
- molecule: "O=C(COC(=O)c1ccc([N+](=O)[O-])s1)Nc1cccc(S(=O)(=O)/N=C2/CCCCCN2)c1"
  system.under.test: "UniProtKB Q9GZR1"
  data.value: "4.62 µM (active)"
- molecule: "COc1cccc(C(=O)NC(=S)Nc2ccc(N(C)C)cc2)c1"
  system.under.test: "UniProtKB Q9GZR1"
  data.value: "16.1 µM (active)"
- molecule: "COC(=O)c1ccc(-c2ccc(F)cc2)nc1C"
  system.under.test: "UniProtKB Q9GZR1"
  data.value: "31.9 µM (active)"
- molecule: "COc1ccc(C(C[N+](=O)[O-])c2c(C)[nH]n(-c3ccccc3)c2=O)cc1 (stereo unspecified)"
  system.under.test: "UniProtKB Q9GZR1"
  data.value: "7.1 µM (active)"

// data source = ChEMBL document CHEMBL1201862
